Experiment description: Hemolytic activity in human RBC at 64 times MIC incubated for 4 hrs by microscopic analysis relative to control
Type: ADME, cell-based, Erythrocyte
Protocol conditions: red blood cells (erythrocytes), read-out: Activity
Parameter measured: hemolysis at 4 h, 64 times MIC

INSERT INTO measurements (molecule, parameter_measured, observed_measurement) VALUES
  ('COC(=O)CO/N=C(\CN1CCN(c2cc3c(cc2F)c(=O)c(C(=O)O)cn3C2CC2)CC1)c1nccs1', 'hemolysis at 4 h, 64 times MIC', '< 5%');

###

Some compounds, each annotated with its measured MIC.
Test system: Pseudomonas aeruginosa
Experiment description: Antibacterial activity against Pseudomonas aeruginosa assessed as reduction in microbial growth by two fold microdilution method
Assay type: functional
Parameter measured: MIC (µg/mL)

INSERT INTO measurements (compound, assayed_target, observed_measurement) VALUES
  ('CO/N=C(\CN1CCN(c2c(F)cc3c(=O)c(C(=O)O)cn(C4CC4)c3c2Cl)CC1)c1nccs1', 'Pseudomonas aeruginosa', 1),
  ('CCn1cc(C(=O)O)c(=O)c2cc(F)c(N3CCNCC3)cc21 [NORFLOXACIN]', 'Pseudomonas aeruginosa', 2),
  ('CCO/N=C(\CN1CCN(c2cc3c(cc2F)c(=O)c(C(=O)O)cn3CC)CC1)c1nccs1', 'Pseudomonas aeruginosa', 0.25),
  ('CCn1cc(C(=O)O)c(=O)c2cc(F)c(N3CCN(CC(=O)c4nccs4)CC3)cc21', 'Pseudomonas aeruginosa', 4),
  ('CC(C)(C)O/N=C(\CN1CCN(c2c(F)cc3c(=O)c(C(=O)O)cn(C4CC4)c3c2Cl)CC1)c1nccs1', 'Pseudomonas aeruginosa', 0.25),
  ('CCn1cc(C(=O)O)c(=O)c2cc(F)c(N3CCN(C/C(=N\OCc4ccccc4)c4nccs4)CC3)cc21', 'Pseudomonas aeruginosa', 0.5),
  ('COC(=O)CO/N=C(\CN1CCN(c2cc3c(cc2F)c(=O)c(C(=O)O)cn3C2CC2)CC1)c1nccs1', 'Pseudomonas aeruginosa', 0.25),
  ('O=C(O)c1cn(C2CC2)c2c(Cl)c(N3CCN(C/C(=N\OCc4ccccc4)c4nccs4)CC3)c(F)cc2c1=O', 'Pseudomonas aeruginosa', 1),
  ('CO/N=C(\CN1CCN(c2cc3c(cc2F)c(=O)c(C(=O)O)cn3C2CC2)CC1)c1nccs1', 'Pseudomonas aeruginosa', 0.25),
  ('CCn1cc(C(=O)O)c(=O)c2cc(F)c(N3CCN(C/C(=N\OCC(=O)OC)c4nccs4)CC3)cc21', 'Pseudomonas aeruginosa', 0.25),
  ('O=C(O)c1cn(C2CC2)c2cc(N3CCN(C/C(=N\OCc4ccccc4)c4nccs4)CC3)c(F)cc2c1=O', 'Pseudomonas aeruginosa', 0.25),
  ('CCn1cc(C(=O)O)c(=O)c2cc(F)c(N3CCN(C/C(=N\OC(C)(C)C)c4nccs4)CC3)cc21', 'Pseudomonas aeruginosa', 2),
  ('C=CCO/N=C(\CN1CCN(c2cc3c(cc2F)c(=O)c(C(=O)O)cn3CC)CC1)c1nccs1', 'Pseudomonas aeruginosa', 0.25);

###

compounds and their reported MIC
Tested on: Staphylococcus aureus
Experiment description: Antibacterial activity against Staphylococcus aureus ATCC 29213 assessed as reduction in microbial growth by two fold microdilution method
Assay type: functional
Parameter measured: MIC (µg/mL)

INSERT INTO measurements (molecule, parameter_measured, unit_abbrev, observed_measurement) VALUES
  ('COC(=O)CO/N=C(\CN1CCN(c2cc3c(cc2F)c(=O)c(C(=O)O)cn3C2CC2)CC1)c1nccs1', 'MIC', 'µg/mL', 0.25),
  ('CC(C)(C)O/N=C(\CN1CCN(c2c(F)cc3c(=O)c(C(=O)O)cn(C4CC4)c3c2Cl)CC1)c1nccs1', 'MIC', 'µg/mL', 0.25),
  ('O=C(O)c1cn(C2CC2)c2cc(N3CCNCC3)c(F)cc2c1=O', 'MIC', 'µg/mL', 0.5),
  ('CCO/N=C(\CN1CCN(c2cc3c(cc2F)c(=O)c(C(=O)O)cn3CC)CC1)c1nccs1', 'MIC', 'µg/mL', 4),
  ('O=C(CN1CCN(c2cc3c(cc2F)c(=O)c(C(=O)O)cn3C2CC2)CC1)c1nccs1', 'MIC', 'µg/mL', 2);
